Recorded percentage binding (FACS heat-map) by entry
Target: T1, human IGSF11 (VSIG3) on cells (human, UniProt Q5DX21 23-431)
T1 sequence: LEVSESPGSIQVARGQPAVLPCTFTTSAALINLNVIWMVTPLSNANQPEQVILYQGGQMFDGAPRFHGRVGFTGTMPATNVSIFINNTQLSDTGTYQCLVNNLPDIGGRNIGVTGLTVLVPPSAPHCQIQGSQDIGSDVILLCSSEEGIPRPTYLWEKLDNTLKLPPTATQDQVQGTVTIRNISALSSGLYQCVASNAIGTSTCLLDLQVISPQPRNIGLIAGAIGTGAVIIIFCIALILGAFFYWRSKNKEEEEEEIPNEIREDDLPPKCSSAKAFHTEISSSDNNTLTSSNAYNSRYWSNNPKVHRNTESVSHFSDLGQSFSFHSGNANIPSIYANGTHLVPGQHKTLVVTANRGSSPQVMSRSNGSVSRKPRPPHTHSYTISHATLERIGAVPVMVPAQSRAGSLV
Test: FACS, IgG1-format antibodies; CL-11 cells (C), a line that does not express IGSF11 (specificity control), IGSF11 siRNA (KD)
Answer with the value and then the unit.

Worked set:
IN: If you can, please state the reported percentage binding (FACS heat-map) value of A-012 (IgG1 format) (antibody, V domains shown, human IgG1 format) VH: EVQLLESGGGLIQPGGSLRLSCAVSGFTVSSNYMSWVRQAPGKGLEWVSVIYSGGSTYYADSVKGRFTISRDNSKNTLYLQMNSLRAEDTAVYYCARGNPYYYGDLQVNFDYWGQGTLVTVSS VL: QAVVTQEPSLTVSPGGTVTLTCASSTGAVTSGYYPNWFQQKPGQAPRALIYSTSNKHSWTPARFSGSLLGGKAALTLSGVQPEDEAEYYCLLYYGGAWVFGGGTKLTVL .
OUT: 3.93%

IN: // same read-out, input: B-002 (chain-swapped IgG1) (antibody, V domains shown, human IgG1 format; also called B2) VH: EVQLVESGGGLIQPGGSLRLSCAASGFTVSSNYMSWVRQAPGKGLEWVSVIYSGGSTYYADSVKGRFTISRDNSKNTLYLQMNSLRAEDTAVYYCARGNPYYYGDLQVNFDYWGQGTLVTVSS VL: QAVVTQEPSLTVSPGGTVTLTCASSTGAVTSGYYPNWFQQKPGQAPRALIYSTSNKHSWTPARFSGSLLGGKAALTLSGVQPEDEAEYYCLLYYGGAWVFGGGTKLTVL
OUT: 4.54%

IN: Param item: A-006 (IgG1 format) (antibody, V domains shown, human IgG1 format; also called A-006-like ABP) VH: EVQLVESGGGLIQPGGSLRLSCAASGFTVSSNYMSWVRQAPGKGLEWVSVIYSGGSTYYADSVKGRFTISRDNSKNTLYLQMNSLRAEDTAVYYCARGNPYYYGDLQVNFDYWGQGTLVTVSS VL: QAVVTQEPSLTVSPGGTVTLTCASSTGAVTSGYYPNWFQQKPGQAPRPLIYSTSNKHSWTPARFSGSLLGGKAALTLSGVQPDDEAEYYCLLYYGGDWVFGGGTKLTVL
OUT: 3.04%

---
IN: Can you share its percentage binding (FACS heat-map)? I mean this binder: A-026 (IgG1 format) (antibody, V domains shown, human IgG1 format) VH: QVQLQESGPGLVKPSQTLSLTCTVSGGSISSGGYYWSWIRQHPGKGLEWIGYIYYSGSTYYNPSLKSRVTISVDTSKNQFSLKLSSVTAADTAVYYCASWSLGTSNHGWFDPWGQGTLVTVSS VL: QSVLTQPPSASGTPGQRVTISCSGSSSNIGSNTVNWYQQLPGTAPKLLISDNNNRPSGVPDRFSGSKSGTSASLAITGLQAEDEADYYCQSYDSNLSGWVFGGGTKLTVL
OUT: 3.47%

IN: Another binder: A-027 (IgG1 format) (antibody, V domains shown, human IgG1 format) VH: QVQLVQSGAEVKKPGSSVKVSCKASGGTFSSYAISWVRQAPGQGLEWMGGIIPIFGTANYAQKFQGRVTITADKSTSTAYMELSSLRSEDTAVYYCARARGSTWGYFDYWGQGTLVTVSS VL: EIVLTQSPASLSLSPGERVTLSCRASQSVSNYLAWYQQKPGQAPRLLIYDASNRATGIPARFSGSGSGTDFTLTISSLEPEDFAVYYCQQRDNWPLTFGGGTKVEIK
OUT: 4.75%

IN: Follow-up item: A-011 (IgG1 format) (antibody, V domains shown, human IgG1 format) VH: QVQLVESGGGVVQPGRSLRLSCAASGFTFSSYAMHWVRQAPGKGLEWVAVISYDGSNKYYADSVKGRFTISRDNSKNTLYLQMNSLRAEDTAVYYCAEGGALNYYGMDVWGQGTTVTVSS VL: SSELTQDPGVSVALGQTVRITCQGDSLRHFYATWYQQKPGQAPILVIYGKNNRPSGIPDRFSGSSSEDTASLTITGAQAEDEADYYCQSRDPRNNHLIFGGGTKLIVL
OUT: 4.86%
